- assay_info: HepG2 cell viability effects, profiling panel, calcein-AM fluorescence, 48 h, basal (AID 1164); further: test concentration not given here
- stated_conditions: higher = more signal
Below, each entry is listed alongside its reported z-score.
readout_kind: z-score

• CC(C)C[C@@H]1NC(=O)[C@H]2C[C@@H](C(=O)O)[C@@H](c3cccc(OCCO)c3)N2C1=O = -0.072
• CN(C)CCCC[C@@H]1NC(=O)[C@H]2C[C@@H](C(=O)NCCCCCCNC(=O)CS)[C@@H](c3cccc(OCCO)c3)N2C1=O = -0.384
• COCCCNC(=O)[C@@]1(Cc2ccccc2I)c2ccccc2C(=O)N(Cc2ccccc2C(F)(F)F)[C@H]1c1ccc(CO)cc1 = -0.305
• [N-]=[N+]=NCc1ccccc1[C@H]1OC(c2ccc(OCCCO)cc2)=N[C@@]1(Cc1ccccc1N=[N+]=[N-])C(=O)O = 0.312
